Measured Diameter (DLS; nm) accompanies every entry in the list below.
measurement_description: Physical characterisation of DNA-containing LNPs (DLS, NTA, zeta potential)
Type: physicochemical
assay_context: nano-pB-EF1a-GFP DNA LNPs: compound/DOPE/Cholesterol/DMG-PEG2000 38.0/50.0/10.0/2.0, lipid:DNA 45:1 (w/w)
Value expressed in nm; do not type the unit.

Observe how each entry below is paired with its result.
compound	Diameter (DLS; nm)
CC(C)C(CCC(C)C(CCC1CCC(C(=O)NC2CCC(CC3CCC(NC(=O)C4CCC(CCC(SCCN(C)C)C(C)CCC(SCCN(C)C)C(C)C)C(SCCN(C)C)C4)CC3)CC2)CC1SCCN(C)C)SCCN(C)C)SCCN(C)C (stereo not shown) [Compound 5]	82.0
CC(C)C(CCC(C)C(CCC1CCC(C(=O)NCCCCCCNC(=O)C2CCC(CCC(SCCN(C)C)C(C)CCC(SCCN(C)C)C(C)C)C(SCCN(C)C)C2)CC1SCCN(C)C)SCCN(C)C)SCCN(C)C (stereo not shown) [Compound 1]	123.5
CC(C)C(CCC1CCC(C(=O)NCCCCCCNC(=O)C2CCC(CCC(SCCN(C)C)C(C)C)C(SCCN(C)C)C2)CC1SCCN(C)C)SCCN(C)C (stereo not shown) [Compound 2]	80.6

Pending compound:
INPUT: Name the recorded Diameter (DLS; nm) for CC(C)C(CCC(C)C(CCC1CC2C(=O)N(c3ccc(N4C(=O)C5CC(CCC(SCCN(C)C)C(C)CCC(SCCN(C)C)C(C)C)C(SCCN(C)C)CC5C4=O)cc3)C(=O)C2CC1SCCN(C)C)SCCN(C)C)SCCN(C)C (stereo not shown) [Compound 7] .
OUTPUT: 110.2

* * *

Test system: BALB/C mice
measurement_description: In vivo intramuscular LNP delivery of fLuciferase mRNA, bioluminescent imaging
assay_context: intramuscular 20 μg fLuciferase mRNA, right hind limb, BLI at 4 hr; LNP compound/DOPE/Cholesterol/DMG-PEG2000 33.5/32.0/33.5/1.0, lipid:RNA 25:1
metric: Avg IM flux n = 2
Provide a numeric answer; units are not to be included.

Example results:
compound	system_under_test	Avg IM flux n = 2
CC(C)C(CCC(C)C(CCC1CCC(C(=O)NCCCCCCCCCCCCNC(=O)C2CCC(CCC(SCCN(C)C)C(C)CCC(SCCN(C)C)C(C)C)C(SCCN(C)C)C2)CC1SCCN(C)C)SCCN(C)C)SCCN(C)C (centres unmarked)	BALB/C mice	5.8E+6
CC(C)C(CCC(C)C(CCC1CCC(C(=O)NC2CCC(CC3CCC(NC(=O)C4CCC(CCC(SCCN(C)C)C(C)CCC(SCCN(C)C)C(C)C)C(SCCN(C)C)C4)CC3)CC2)CC1SCCN(C)C)SCCN(C)C)SCCN(C)C (centres unmarked)	BALB/C mice	2.12E+5
CC(C)C(CCC1CCC(C(=O)NCCCCCCCCCCCCNC(=O)C2CCC(CCC(SCCN(C)C)C(C)C)C(SCCN(C)C)C2)CC1SCCN(C)C)SCCN(C)C (centres unmarked)	BALB/C mice	2.07E+6

INPUT: What is its Avg IM flux n = 2 for BALB/C mice? Entry: CC(C)C(CCC(C)C(CCC1CC2C(=O)N(c3ccc(N4C(=O)C5CC(CCC(SCCN(C)C)C(C)CCC(SCCN(C)C)C(C)C)C(SCCN(C)C)CC5C4=O)cc3)C(=O)C2CC1SCCN(C)C)SCCN(C)C)SCCN(C)C (centres unmarked)
OUTPUT: 2.4E+5

INPUT: Notebook: pull reported Avg IM flux n = 2 for BALB/C mice, entry CC(C)C(CCC1CC2C(=O)N(c3ccc(N4C(=O)C5CC(CCC(SCCN(C)C)C(C)C)C(SCCN(C)C)CC5C4=O)cc3)C(=O)C2CC1SCCN(C)C)SCCN(C)C (centres unmarked)
OUTPUT: 8.31E+4
